The following molecules are listed with their measured T/C values.
- Tested on: L1210 leukemia ip in BDF1 mice, survival T/C
- experiment: NCI In Vivo Anticancer Drug Screen. Data for tumor model L1210 Leukemia (intraperitoneal) in B6D2F1 (BDF1) mice
- details: endpoint: mean survival time; dose: 25.0 mg/kg/injection; schedule: Q01DX009 (ip); vehicle: Klucel (hydroxypropylcellulose) (HPC); higher = longer survival
Inconclusive results and toxic doses are left out.

{"molecule": "Cc1ccc(S(=O)(=O)N(Cl)Cl)cc1", "T/C": "94 % of control"}
{"molecule": "COC(=O)c1ccccc1NC(=O)c1ccccc1C(=O)O", "T/C": "100 % of control"}
{"molecule": "CCCCCCSc1nccnc1C", "T/C": "100 % of control"}
{"molecule": "NCc1cccn1OCc1ccccc1", "T/C": "108 % of control"}
{"molecule": "CC(=O)Nc1ccc2c(c1)Cc1cccc(NC(C)=O)c1-2", "T/C": "95 % of control"}
{"molecule": "CC(C)CCNc1ncnc2[nH]ncc12", "T/C": "104 % of control"}
{"molecule": "CCN(CC)CCN(C(=S)Nc1ccccc1)c1ccccc1", "T/C": "103 % of control"}
{"molecule": "O=C1C2C(C(=O)N1c1cccc3ccccc13)C1(Cl)C(Cl)=C(Cl)C2(Cl)C1(Cl)Cl (configuration not stated)", "T/C": "104 % of control"}
{"molecule": "Clc1cc(Cl)c2c(c1)COCO2", "T/C": "109 % of control"}
{"molecule": "O=S1(=O)CC(Br)C1", "T/C": "96 % of control"}
{"molecule": "NCC(=O)NC1(C(=O)O)C2CC3CC(C2)CC1C3 (configuration not stated)", "T/C": "96 % of control"}
{"molecule": "COc1ccc(/C(C#N)=C/c2ccc(N(C)CCC#N)cc2)cc1", "T/C": "100 % of control"}

====

- System: L1210 leukemia ip in BDF1 mice, survival T/C
- experiment: NCI In Vivo Anticancer Drug Screen. Data for tumor model L1210 Leukemia (intraperitoneal) in B6D2F1 (BDF1) mice
- details: endpoint: mean survival time; dose: 200.0 mg/kg/injection; schedule: Q04DX002 (ip); vehicle: saline with Tween-80
Toxic doses and inconclusive results are not listed. Rule as the data show it: active = T/C of 150% or more; inactive = T/C below 125%.
Outcome codes: active, inactive

{"compound": "CCOC(=O)c1ccc(NC(=S)Nc2ncccc2C)cc1", "class name": "inactive"}
{"compound": "C(CC1CCCC1)=C(CCC1CCCC1)CCC1CCCC1", "class name": "inactive"}
{"compound": "O=C(NCCN1CCOCC1)Nc1cccc2c1CCCC2", "class name": "inactive"}
{"compound": "COc1ccc([N+](=O)[O-])cc1NS(=O)(=O)c1c(C)cc(C)cc1C", "class name": "inactive"}
{"compound": "CC(C)(O)S(=O)(=O)O", "class name": "inactive"}
{"compound": "Cc1cccc(NC(=S)NCCc2ccccn2)c1", "class name": "inactive"}
{"compound": "Cc1cccc(C(=O)NCC(=O)O)c1", "class name": "inactive"}
{"compound": "O=C1/C(=C/c2ccccc2)CCC/C1=C\\c1ccccc1", "class name": "inactive"}
{"compound": "CCCCc1cn(C(C)=O)nn1", "class name": "inactive"}
{"compound": "CC1(O)C(c2ccccc2)=Nc2ccccc21 (stereo unspecified)", "class name": "inactive"}
{"compound": "O=C(C(=O)N1CC2OC2C1)N1CC2OC2C1 (stereo unspecified)", "class name": "active"}

====

- Tested on: L1210 leukemia ip in BDF1 mice, survival T/C
- experiment: NCI In Vivo Anticancer Drug Screen. Data for tumor model L1210 Leukemia (intraperitoneal) in B6D2F1 (BDF1) mice
- details: endpoint: mean survival time; dose: 50.0 mg/kg/injection; schedule: Q01DX001 (ip); vehicle: saline
Toxic doses and inconclusive results are not listed. No stated cut-off is given here; in the data, active means T/C of 150% or more; inactive means T/C below 125%.
Classes used: 1 (yes) for active, 0 (no) for inactive

{"compound": "C[n+]1ccc(Nc2ccc(NC(=O)c3ccc(Nc4cc[n+](C)c5ccc(N)cc45)cc3N)cc2)cc1", "system under test": "L1210 leukemia ip in BDF1 mice, survival T/C", "class name": "1 (yes)"}
{"compound": "CCCCCCCCCCCCC(CC(=O)O)C(=O)N(CCO)CCO (stereo unspecified)", "system under test": "L1210 leukemia ip in BDF1 mice, survival T/C", "class name": "0 (no)"}
{"compound": "CC(N)C(=O)NC(C)C(=O)O (stereo unspecified)", "system under test": "L1210 leukemia ip in BDF1 mice, survival T/C", "class name": "0 (no)"}
{"compound": "CN(C)CCSSCCN(C)C", "system under test": "L1210 leukemia ip in BDF1 mice, survival T/C", "class name": "0 (no)"}
{"compound": "Nc1ncnc2c1nnn2C1OC(CO)C(O)C1O (stereo unspecified)", "system under test": "L1210 leukemia ip in BDF1 mice, survival T/C", "class name": "0 (no)"}
{"compound": "COc1ccccc1CN1CCCN(Cc2ccccc2OC)C1c1ccccc1", "system under test": "L1210 leukemia ip in BDF1 mice, survival T/C", "class name": "0 (no)"}

====

- Tested on: L1210 leukemia ip in BDF1 mice, survival T/C
- experiment: NCI In Vivo Anticancer Drug Screen. Data for tumor model L1210 Leukemia (intraperitoneal) in B6D2F1 (BDF1) mice
- details: endpoint: mean survival time; dose: 400.0 mg/kg/injection; schedule: Q04DX002 (ip); vehicle: saline with Tween-80; higher = longer survival
Toxic doses and inconclusive results are not listed.
T/C for assorted molecules

{"molecule": "Cc1cc(C2=NCC(C)S2)c(C(C)C)cc1O (stereo unspecified)", "T/C": "104 % of control"}
{"molecule": "Nc1nc2c(c(=O)[nH]1)CP(=S)(c1ccccc1)CC2 (stereo unspecified)", "T/C": "94 % of control"}
{"molecule": "NS(=O)(=O)c1ccc(N=NN2CCOCC2)cc1", "T/C": "115 % of control"}
{"molecule": "COc1ccc(OC)c(NC(=O)Oc2cc(C)c(Cl)c(C)c2)c1", "T/C": "101 % of control"}
{"molecule": "COC1OC2COC(c3ccccc3)OC2C(OS(=O)(=O)c2ccc(C)cc2)C1OC (stereo unspecified)", "T/C": "93 % of control"}
{"molecule": "CCCCCCCCOC(=O)COc1cccc(C)c1", "T/C": "100 % of control"}

====

# maps each entry to its T/C
- Tested on: L1210 leukemia ip in BDF1 mice, survival T/C
- experiment: NCI In Vivo Anticancer Drug Screen. Data for tumor model L1210 Leukemia (intraperitoneal) in B6D2F1 (BDF1) mice
- details: endpoint: mean survival time; dose: 400.0 mg/kg/injection; schedule: Q04DX002 (ip); vehicle: gum acacia; higher = longer survival
Inconclusive results and toxic doses are left out.
experimental endpoint: T/C

{"compound": "O=C(COc1ccc(Cl)cc1Cl)Nc1ccc(Br)cc1", "experimental result": "89 % of control"}
{"compound": "CC(C(=O)O)(c1ccccc1)c1ccccc1", "experimental result": "96 % of control"}
{"compound": "Cc1ncccc1CO", "experimental result": "87 % of control"}
{"compound": "CCC(C(=O)O)(c1ccccc1)c1ccccc1", "experimental result": "86 % of control"}
{"compound": "Nc1ccccc1SC1CC(=O)N(c2ccc(Br)cc2)C1=O (stereo not given)", "experimental result": "95 % of control"}

====

- Test system: L1210 leukemia ip in BDF1 mice, survival T/C
- experiment: NCI In Vivo Anticancer Drug Screen. Data for tumor model L1210 Leukemia (intraperitoneal) in B6D2F1 (BDF1) mice
- details: endpoint: mean survival time; dose: 100.0 mg/kg/injection; schedule: Q01DX001 (ip); vehicle: other; higher = longer survival
Inconclusive results and toxic doses are left out.
experimental endpoint: T/C

{"molecule": "COc1cc(C(=O)N2CCN(c3ccccc3)CC2)c2ccccc2n1", "experimental result": "98 % of control"}
{"molecule": "O=C1NC(=O)C(c2ccccc2)O1 (stereo not drawn)", "experimental result": "92 % of control"}
{"molecule": "C(=N\\n1cnc2c(SCc3ccccc3)ncnc21)/c1ccccc1", "experimental result": "93 % of control"}
{"molecule": "CCCCCCCCCC=C(c1cccc2ccccc12)c1cccc2ccccc12", "experimental result": "93 % of control"}
{"molecule": "CCOC(=O)C(Cc1ccc(N(CCCl)CCCl)cc1)NP1(=O)NCCCO1 (stereo not drawn)", "experimental result": "160 % of control"}
{"molecule": "CCCCCCCCCCCCCCCCCCCCCCCCCCCCCCCS", "experimental result": "95 % of control"}
{"molecule": "CC(C)COC(=O)c1cccc2c1-c1ccccc1C2=O", "experimental result": "96 % of control"}
{"molecule": "CCOC(=O)C(C(=O)CC)C(COC)C(=O)OC (stereo not drawn)", "experimental result": "92 % of control"}
{"molecule": "OCC1OC2OC(c3ccccc3)(c3ccc(OCc4ccccc4)nc3OCc3ccccc3)OC2C1O (stereo not drawn)", "experimental result": "88 % of control"}
{"molecule": "O=C(Cc1ccccc1[N+](=O)[O-])NCCc1ccc2c(c1)OCO2", "experimental result": "86 % of control"}
{"molecule": "O=[N+]([O-])c1ccc2cnn(C[N+]34CN5CN(CN(C5)C3)C4)c2c1", "experimental result": "103 % of control"}
{"molecule": "Cc1cc2ccccc2cn1", "experimental result": "101 % of control"}
{"molecule": "CCCCCCCCCCCCCCCCNCC(=O)Nc1ccc(S(=O)(=O)c2ccc(NC(=O)CNCCCCCCCCCCCCCCCC)cc2)cc1", "experimental result": "89 % of control"}
